Reference for the values: ChEMBL document CHEMBL4602702

testSystem: Muscarinic acetylcholine receptor M2 (Homo sapiens) (UniProt P08172)
endpointName: Kd (nM)
Numbers only; they are read as nM.

Task item: # value lookup — system Muscarinic acetylcholine receptor M2 (Homo sapiens) (UniProt P08172), readout Kd, item CCC(=O)NCc1cc(C(=O)NCCN2CCC(N3CCC(n4c(=O)[nH]c5ccccc54)CC3)CC2)cc(C(=O)NCCN2CCN(CCCCC3CCN(CC(=O)N4c5ccccc5NC(=O)c5ccccc54)CC3)CC2)c1
Reply: 0.813

----------
testSystem: Muscarinic acetylcholine receptor M1 (Homo sapiens, UniProt P11229)
Sequence (P11229 whole entry, the tested form may be a part): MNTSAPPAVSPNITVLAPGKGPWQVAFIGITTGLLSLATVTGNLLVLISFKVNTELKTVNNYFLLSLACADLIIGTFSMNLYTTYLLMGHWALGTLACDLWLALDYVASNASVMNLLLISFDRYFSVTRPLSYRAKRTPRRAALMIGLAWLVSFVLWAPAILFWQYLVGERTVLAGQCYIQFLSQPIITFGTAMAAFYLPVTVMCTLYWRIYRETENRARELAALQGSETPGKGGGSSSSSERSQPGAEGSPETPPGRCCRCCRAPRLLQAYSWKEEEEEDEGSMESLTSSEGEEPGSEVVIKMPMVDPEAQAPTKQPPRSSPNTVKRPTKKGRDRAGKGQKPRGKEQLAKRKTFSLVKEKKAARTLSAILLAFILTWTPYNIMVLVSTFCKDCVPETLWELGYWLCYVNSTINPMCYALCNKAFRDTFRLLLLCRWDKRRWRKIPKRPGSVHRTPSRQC
experimentalProtocol: Displacement of [3H]-QNB from truncated EGFP-fused human muscarinic M1 receptor expressed in HEK293 cells by […]
Assay type: cell-based
endpointName: Ki (nM)
Numbers only; they are read as nM.

Task item: Which value of Ki has been reported for O=C(CCC1=[N+]2C(=Cc3ccc(-c4cccs4)n3[B-]2(F)F)C=C1)NCCOCCOCCOCCOCCOCCOCCCN1CCN(CC(=O)N2c3ccccc3C(=O)Nc3cccnc32)CC1 in the records?
Reply: 8.91
